tested.on: T1, K280-ac protein fragment (human)
T1 construct: also called mAC
T1 peptide: VQIINK(Ac)KLDLSN
test.protocol: ELISA on K280-ac coated at 250 ng/well, HRP anti-human IgG
Ends that are not written are not given here.
I'd appreciate it if you marked entries fulfilled when Absorbance at 450nm at 0.01ug/well is lower than 0.1 and not fulfilled when it is not.

As a guide, the following entries are already answered.
binder | classification
ADEL-Y01h v03 antibody (antibody, V domains shown, Humanized antibody; It was detected with anti-human IgG; also called Y01h01v03) VH: EVQLQESGPGLVKPSQTLSLTCTVSGDSITSGYWNWIRQPPGKGLEYIGYIRYSGRTYYNPSLKSRVTISRDTSKNQFSLKLSSVTAADTAVYYCASVYFTYWGQGTLVTVSS VL: EVVLTQSPGTLSLSPGERATLSCKSSQSLLDSDGKTYLNWYQQKPGQSPKRLISLVSKLDSGIPDRFSGSGSGTDFTLTISRLEPEDFAVYYCWQGSHFPYTFGQGTKLEIK | fulfilled
ADEL-Y01h01_v01 antibody (antibody, V domains shown, Humanized ADEL-Y01m; It was detected with anti-human IgG; also called ADEL-Y01h v01) VH: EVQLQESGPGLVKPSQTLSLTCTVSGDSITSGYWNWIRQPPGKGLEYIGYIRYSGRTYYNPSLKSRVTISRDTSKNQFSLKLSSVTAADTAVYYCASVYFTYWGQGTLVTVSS VL: DVVMTQSPLSLPVTLGQPASISCKSSQSLLDSDGKTYLNWFQQRPGQSPKRLISLVSKLDSGVPDRFSGSGSGTDFTLKISRVEAEDVGVYYCWQGSHFPYTFGQGTKLEIK | not fulfilled
ADEL-Y01h v05 antibody (antibody, V domains shown, Humanized antibody; It was detected with anti-human IgG; also called Y01h01v05) VH: EVQLQQSGPGLVKPSQTLSLTCAVSGDSITSGYWNWIRQSPSRGLEWLGYIRYSGRTYYNPSLKSRITINRDTSKNQFSLQLNSVTPEDTAVYYCASVYFTYWGQGTLVTVSS VL: DVVMTQSPDSLAVSLGERATINCKSSQSLLDSDGKTYLNWYQQKPGQSPKRLISLVSKLDSGVPDRFSGSGSGTDFTLTISSLQAEDVAVYYCWQGSHFPYTFGQGTKLEIK | not fulfilled
ADEL-Y01h v08 antibody (antibody, V domains shown, Humanized antibody; It was detected with anti-human IgG; also called Y01h01v08) VH: EVTLKESGPTLVKPTQTLTLTCTVSGDSITSGYWNWIRQPPGKALEYLAYIRYSGRTYYNPSLKSRLTITRDTSKNQVVLTMTNMDPVDTATYYCASVYFTYWGQGTLVTVSS VL: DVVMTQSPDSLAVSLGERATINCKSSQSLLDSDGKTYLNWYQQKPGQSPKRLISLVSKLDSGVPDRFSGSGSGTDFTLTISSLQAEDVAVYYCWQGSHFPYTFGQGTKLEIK | fulfilled

Now turn to the next binder.
stdin: Consider the binder v12 (antibody, V domains shown, also called Y01h01v12; ADEL-Y01h v12 antibody) VH: EVQLVESGGGLVQPGRSLRLSCTVSGDSITSGYWNWFRQAPGKGLEYVGYIRYSGRTYYNPSLKSRFTISRDTSKNIAYLQMNSLKTEDTAVYYCASVYFTYWGQGTLVTVSS VL: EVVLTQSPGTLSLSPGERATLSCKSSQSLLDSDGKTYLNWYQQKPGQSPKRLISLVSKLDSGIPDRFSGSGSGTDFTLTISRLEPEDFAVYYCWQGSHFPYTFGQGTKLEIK . Is its Absorbance at 450nm at 0.01ug/well strictly less than 0.1?
stdout: not fulfilled
